Cited source for all entries: ChEMBL document CHEMBL4184238

Experiment: Stability in human liver microsomes assessed as parent compound remaining level at 2 uM in presence of NADPH incubated for 30 mins by LC-MS/MS method
Assay type: ADME, microsome
Conditions: read-out: Stability
measured-quantity: remaining at 0.5 h, 2 µM (%)

{"columns": ["smiles", "measured-quantity", "assay-result"],
 "data": [
  ["CNC(=O)c1cc(OCCCCN2CCC(c3noc4cc(F)ccc34)CC2)ccn1", "remaining at 0.5 h, 2 µM", 98],
  ["CNC(=O)c1cc(OCCCCN2CCN(c3nsc4ccccc34)CC2)ccn1", "remaining at 0.5 h, 2 µM", 65]
]}

I: CNC(=O)c1cc(OCCCCN2CCN(c3cccc4sccc34)CC2)ccn1
II: CNC(=O)c1cccc(OCCCCN2CCN(c3nsc4ccccc34)CC2)c1
III: CNC(=O)c1cccc(OCCCCN2CCC(c3noc4cc(F)ccc34)CC2)c1
Hello, I need these entries ordered by remaining at 0.5 h, 2 µM, highest reading first. Thanks! Your answer should be the labels, listed in the requested order.
III, I, II
(III: 97%, I: 65%, II: 25%)

====

Target: Alpha-1A adrenergic receptor (Homo sapiens, UniProt P35348)
Sequence (P35348 whole entry): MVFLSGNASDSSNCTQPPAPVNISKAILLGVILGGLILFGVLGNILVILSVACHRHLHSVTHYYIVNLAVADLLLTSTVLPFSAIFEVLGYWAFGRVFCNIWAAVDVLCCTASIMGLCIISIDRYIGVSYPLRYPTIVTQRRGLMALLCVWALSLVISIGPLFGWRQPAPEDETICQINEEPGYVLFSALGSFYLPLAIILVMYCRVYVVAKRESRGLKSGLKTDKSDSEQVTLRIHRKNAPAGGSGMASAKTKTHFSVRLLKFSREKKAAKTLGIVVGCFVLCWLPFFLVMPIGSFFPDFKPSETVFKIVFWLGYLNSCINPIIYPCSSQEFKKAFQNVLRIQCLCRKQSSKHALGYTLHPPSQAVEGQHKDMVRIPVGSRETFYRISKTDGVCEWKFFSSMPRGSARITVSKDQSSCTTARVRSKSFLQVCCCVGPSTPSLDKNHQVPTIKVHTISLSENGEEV
Experiment: Antagonistic activity at alpha-1A adrenergic receptor (unknown origin) after 10 mins by FLIPR assay
measured-quantity: IC50 (nM)

P: CNC(=O)c1cc(OCCCCN2CCC(c3noc4cc(F)ccc34)CC2)ccn1
Q: CNC(=O)c1cc(OCCCCN2CCN(c3nsc4ccccc34)CC2)ccn1
R: CNC(=O)c1cc(OCCCCN2CCN(c3cccc4sccc34)CC2)ccn1
Rank the listed compounds by IC50, largest first. Your answer should be the labels, listed in the requested order.
R, Q, P
(R: 164 nM, Q: 71 nM, P: 11 nM)

====

Molecular target: 5-hydroxytryptamine receptor 2A (Homo sapiens, UniProt P28223)
Sequence (P28223 whole entry): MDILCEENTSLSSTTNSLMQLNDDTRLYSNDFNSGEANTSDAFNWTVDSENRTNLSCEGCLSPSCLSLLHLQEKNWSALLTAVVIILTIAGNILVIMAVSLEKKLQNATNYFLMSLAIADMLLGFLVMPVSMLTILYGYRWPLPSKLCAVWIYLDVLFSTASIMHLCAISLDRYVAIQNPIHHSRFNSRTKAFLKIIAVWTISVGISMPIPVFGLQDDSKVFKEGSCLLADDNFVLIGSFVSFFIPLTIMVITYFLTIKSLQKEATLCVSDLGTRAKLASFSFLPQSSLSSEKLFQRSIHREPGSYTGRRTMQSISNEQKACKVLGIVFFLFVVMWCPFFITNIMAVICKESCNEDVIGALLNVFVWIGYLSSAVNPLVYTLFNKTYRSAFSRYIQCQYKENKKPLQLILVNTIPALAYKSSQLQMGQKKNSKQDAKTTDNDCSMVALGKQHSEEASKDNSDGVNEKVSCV
Experiment: Antagonistic activity at human 5-HT2A receptor assessed as calcium flux after 10 mins by FLIPR assay
pIC50: −log10 of the molar value.
measured-quantity: pIC50

Here's what some known entries look like.
{"columns": ["smiles", "system", "assay-result"],
 "data": [
  ["CNC(=O)c1cc(OCCCCN2CCN(c3cccc4sc(F)cc34)CC2)ccn1", "5-hydroxytryptamine receptor 2A (Homo sapiens, UniProt P28223)", 7.19],
  ["CNC(=O)c1cccc(OCCCCN2CCC(c3noc4cc(F)ccc34)CC2)n1", "5-hydroxytryptamine receptor 2A (Homo sapiens, UniProt P28223)", 6.87],
  ["CCNC(=O)c1cc(OCCCCN2CCC(c3noc4cc(F)ccc34)CC2)ccn1", "5-hydroxytryptamine receptor 2A (Homo sapiens, UniProt P28223)", 7.02]
]}

a: CNC(=O)c1cc(OCCCCN2CCN(c3nsc4ccccc34)CC2)ccn1
b: CNC(=O)c1cccc(OCCCCN2CCN(c3cccc(Cl)c3Cl)CC2)n1
Which value of pIC50 is greater, the one for a or the one for b ? // caller expects the label of the chosen entry
a

I: CNC(=O)c1cc(OCCCCN2CCN(c3cccc4sccc34)CC2)ccn1
II: CNC(=O)c1cc(OCCCCN2CCN(c3cccc(Cl)c3Cl)CC2)ccn1
III: CNC(=O)c1cccc(OCCCCN2CCN(c3ccc4ccsc4c3)CC2)n1
Ascending by pIC50, please. Your answer should be the labels, listed in the requested order.
III, II, I
(III: 5.89, II: 6.32, I: 6.81)

A: NC(=O)c1cc(OCCCCN2CCN(c3nsc4ccccc34)CC2)ccn1
B: CNC(=O)c1cc(OCCCCN2CCC(c3noc4cc(F)ccc34)CC2)ccn1
// task: argmin of pIC50 over [ A , B ] // caller expects the label of the chosen entry
A
(A: 6.28, B: 6.61)

====

Target: 5-hydroxytryptamine receptor 2A (Homo sapiens, UniProt P28223)
Test: Antagonistic activity at human 5-HT2A receptor assessed as calcium flux after 10 mins by FLIPR assay
Format: functional
pIC50: −log10 of the molar value.
measured-quantity: pIC50

Here's what some known entries look like.
{"columns": ["smiles", "assay-result"],
 "data": [
  ["CNC(=O)c1ccnc(OCCCCN2CCC(c3noc4cc(F)ccc34)CC2)c1", 7.20],
  ["CNC(=O)c1cccc(OCCCCN2CCN(c3cccc4sccc34)CC2)n1", 6.97],
  ["CNC(=O)c1cncc(OCCCCN2CCC(c3noc4cc(F)ccc34)CC2)c1", 7.08],
  ["CCNC(=O)c1cncc(OCCCCN2CCC(c3noc4cc(F)ccc34)CC2)c1", 7.03],
  ["O=C(NC1CC1)c1cc(OCCCCN2CCN(c3nsc4ccccc34)CC2)ccn1", 6.49]
]}

1: O=C(NC1CC1)c1cncc(OCCCCN2CCC(c3noc4cc(F)ccc34)CC2)c1
2: O=C(NC1CC1)c1ccnc(OCCCCN2CCC(c3noc4cc(F)ccc34)CC2)c1
// task: argmin of pIC50 over [ 1 , 2 ] // caller expects the label of the chosen entry
1

A: CCNC(=O)c1ccnc(OCCCCN2CCC(c3noc4cc(F)ccc34)CC2)c1
B: O=C(NC1CC1)c1cc(OCCCCN2CCC(c3noc4cc(F)ccc34)CC2)ccn1
// task: argmin of pIC50 over [ A , B ] // caller expects the label of the chosen entry
B
(B: 6.78, A: 7.17)

====

Target: 5-hydroxytryptamine receptor 1A (Homo sapiens)
Sequence (P08908 whole entry): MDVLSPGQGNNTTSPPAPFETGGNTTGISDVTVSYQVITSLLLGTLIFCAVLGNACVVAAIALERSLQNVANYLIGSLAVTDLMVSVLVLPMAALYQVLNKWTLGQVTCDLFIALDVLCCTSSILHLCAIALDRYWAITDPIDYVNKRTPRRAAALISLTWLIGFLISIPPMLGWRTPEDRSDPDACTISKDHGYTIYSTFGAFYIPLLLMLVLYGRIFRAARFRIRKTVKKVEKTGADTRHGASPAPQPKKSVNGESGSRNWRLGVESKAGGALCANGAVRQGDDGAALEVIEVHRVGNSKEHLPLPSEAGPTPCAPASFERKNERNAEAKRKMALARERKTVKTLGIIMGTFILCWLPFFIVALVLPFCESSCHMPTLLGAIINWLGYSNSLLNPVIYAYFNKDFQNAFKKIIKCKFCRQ
Experiment: Agonistic activity at human 5-HT1A receptor measured after 60 mins by Ultra Lance cAMP assay
measured-quantity: EC50 (nM)

{"columns": ["smiles", "EC50 (nM)"],
 "data": [
  ["CNC(=O)c1cc(OCCCCN2CCN(c3cccc4sccc34)CC2)ccn1", 1.2],
  ["CNC(=O)c1cc(OCCCCN2CCN(c3cccc(Cl)c3Cl)CC2)ccn1", 0.9],
  ["CNC(=O)c1cccc(OCCCCN2CCN(c3cccc(Cl)c3Cl)CC2)n1", 23.6]
]}

P: NC(=O)c1cc(OCCCCN2CCN(c3nsc4ccccc34)CC2)ccn1
Q: CNC(=O)c1cc(OCCCCN2CCN(c3nsc4ccccc34)CC2)ccn1
Which value of EC50 is greater, the one for P or the one for Q ? // caller expects the label of the chosen entry
P

====

Biological target: D(2) dopamine receptor (Homo sapiens, UniProt P14416)
Sequence (P14416 whole entry): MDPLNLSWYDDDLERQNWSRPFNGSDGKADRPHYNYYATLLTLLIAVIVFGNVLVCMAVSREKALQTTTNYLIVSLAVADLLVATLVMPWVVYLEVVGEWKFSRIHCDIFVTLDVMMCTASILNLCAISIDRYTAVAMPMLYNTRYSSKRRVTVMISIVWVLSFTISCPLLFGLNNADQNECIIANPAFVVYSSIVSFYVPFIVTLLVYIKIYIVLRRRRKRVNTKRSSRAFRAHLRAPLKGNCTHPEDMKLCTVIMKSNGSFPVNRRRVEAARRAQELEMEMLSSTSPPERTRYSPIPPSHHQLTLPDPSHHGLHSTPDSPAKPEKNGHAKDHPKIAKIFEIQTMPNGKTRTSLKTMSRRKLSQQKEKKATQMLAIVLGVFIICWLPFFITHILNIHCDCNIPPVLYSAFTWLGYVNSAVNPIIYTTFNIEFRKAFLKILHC
Assay: Antagonistic activity at human dopamine D2 receptor measured after 60 mins by Lance Ultra cAMP assay
pIC50: −log10 of the molar value.
measured-quantity: pIC50

A: CNC(=O)c1cncc(OCCCCN2CCC(c3noc4cc(F)ccc34)CC2)c1
B: CCNC(=O)c1ccnc(OCCCCN2CCC(c3noc4cc(F)ccc34)CC2)c1
// task: argmin of pIC50 over [ A , B ] // caller expects the label of the chosen entry
A

a: CNC(=O)c1cccc(OCCCCN2CCN(c3cccc(Cl)c3Cl)CC2)n1
b: CNC(=O)c1cc(OCCCCN2CCN(c3cccc4sccc34)CC2)ccn1
c: CNC(=O)c1ccnc(OCCCCN2CCC(c3noc4cc(F)ccc34)CC2)c1
d: CNC(=O)c1cccc(OCCCCN2CCN(c3cccc4sccc34)CC2)n1
Ascending by pIC50, please. Your answer should be the labels, listed in the requested order.
c, d, a, b

====

Target: 5-hydroxytryptamine receptor 1A (Homo sapiens, UniProt P08908)
Assay: Agonistic activity at human 5-HT1A receptor measured after 60 mins by Ultra Lance cAMP assay
measured-quantity: EC50 (nM)

Here's what some known entries look like.
{"columns": ["smiles", "measured-quantity", "assay-result"],
 "data": [
  ["O=C(NC1CC1)c1cc(OCCCCN2CCN(c3nsc4ccccc34)CC2)ccn1", "EC50", 6.2],
  ["CNC(=O)c1cccc(OCCCCN2CCN(c3ccc4ccsc4c3)CC2)n1", "EC50", 117],
  ["CCNC(=O)c1cc(OCCCCN2CCC(c3noc4cc(F)ccc34)CC2)ccn1", "EC50", 17.6],
  ["CNC(=O)c1cc(OCCCCN2CCN(c3cccc4sc(F)cc34)CC2)ccn1", "EC50", 0.7],
  ["CNC(=O)c1cc(OCCCCN2CCC(c3noc4cc(F)ccc34)CC2)ccn1", "EC50", 9]
]}

I: CNC(=O)c1cccc(OCCCCN2CCN(c3cccc4sccc34)CC2)n1
II: O=C(NC1CC1)c1cc(OCCCCN2CCC(c3noc4cc(F)ccc34)CC2)ccn1
// task: argmin of EC50 over [ I , II ] // caller expects the label of the chosen entry
I
